Let's look at some compounds and their measured Aβ-Cu-SH-SY5Y Toxicity % Viability.
Tested on: SH-SY5Y cells
Conditions: 1000 µM standard, 24 h pre-incubation, then 25 µM Aβ42 and 200 µM copper for 24 h
# number only, unit % dropped from output

INSERT INTO measurements (compound, obs_value) VALUES
  ('C[C@@H]1O[C@@H](OC[C@H]2O[C@@H](Oc3c(-c4ccc(O)c(O)c4)oc4cc(O)cc(O)c4c3=O)[C@H](O)[C@@H](O)[C@@H]2O)[C@H](O)[C@H](O)[C@H]1O [Rutin (RU), Rutin]', 54),
  ('OCCc1ccc(O)c(O)c1 [Hydroxytyrosol (HT), Hydroxytyrosol]', 60),
  ('C/C=C1/[C@H](O[C@@H]2O[C@H](CO)[C@@H](O)[C@H](O)[C@H]2O)OC=C(C(=O)OC)[C@H]1CC(=O)OCCc1ccc(O)c(O)c1 [Oleuropein (OL), Oleuropein]', 76),
  ('O=C(O)/C=C/c1ccc(O)c(O)c1 [Caffeic acid (CA), Caffeic acid]', 62);

Query string: For the compound O=c1cc(-c2ccc(O)c(O)c2)oc2cc(O)cc(O)c12 [Luteolin (LU), Luteolin] , what Aβ-Cu-SH-SY5Y Toxicity % Viability is on record?
Result string: 67

Recorded values, source paper PMC6337485.
